target: BaF3(WT) (Homo sapiens, UniProt P00519); assay: WST (CCK-8) anti-proliferative assay, BaF3 WT; details: read-out: BaF3(WT); BaF3 WT cells, 72 h treatment, CCK-8 readout OD 450 nm
MEASUREMENT_NAME: GI50 (nM)

compound="CC(C)N1c2c(-c3ccn[nH]3)cc(C(=O)Nc3ccc(OC(F)(F)Cl)cc3)cc2C2CCC(N3CCNC3=O)C21 (stereo not drawn)" recorded_value=18
compound=CC(C)N1c2c(-c3ccn[nH]3)cc(C(=O)Nc3ccc(OC(F)(F)Cl)cc3)cc2[C@@H]2CCS(=O)(=O)C[C@@H]21 recorded_value=8
compound="CC(=O)NC1CCC2c3cc(C(=O)Nc4ccc(OC(F)(F)Cl)cc4)cc(-c4cncnc4)c3N(C(C)C)C12 (stereo not drawn)" recorded_value=9
compound="CC(C)N1c2c(-c3ccn[nH]3)cc(C(=O)Nc3ccc(OC(F)(F)Cl)cc3)cc2C2CCC(O)C21 (stereo not drawn)" recorded_value=17
compound=CC(=O)N[C@@H]1CC[C@H]2c3cc(C(=O)Nc4ccc(OC(F)(F)Cl)cc4)cc(-c4cccnn4)c3N(CC(C)(C)C)[C@@H]12 recorded_value=65
compound=CC(=O)N[C@H]1CC[C@@H]2c3cc(C(=O)Nc4ccc(OC(F)(F)Cl)cc4)cc(-c4cncnc4)c3N(C(C)C)[C@H]12 recorded_value=365
compound=CC(=O)N[C@@H]1CC[C@H]2c3cc(C(=O)Nc4ccc(OC(F)(F)Cl)cc4)cc(-c4ccn[nH]4)c3N(C(C)C)[C@@H]12 recorded_value=3
compound=CC(=O)N[C@@H]1CC[C@H]2c3cc(C(=O)Nc4ccc(OC(F)(F)Cl)cc4)cc(-c4ccccn4)c3N(CC(C)(C)C)[C@@H]12 recorded_value=56
compound=CC(=O)N[C@@H]1CC[C@H]2c3cc(C(=O)Nc4ccc(OC(F)(F)Cl)cc4)cc(-c4cc(F)cnc4C#N)c3N(C(C)C)[C@@H]12 recorded_value=6
compound="CC(=O)N(C)C1CCC2c3cc(C(=O)Nc4ccc(OC(F)(F)Cl)cc4)cc(-c4ccn[nH]4)c3N(C(C)C)C21 (stereo not drawn)" recorded_value=36
compound="CC(C)N1c2c(-c3ccn[nH]3)cc(C(=O)Nc3ccc(OC(F)(F)Cl)cc3)cc2C2CCN(C)CC21 (stereo not drawn)" recorded_value=358
compound="CC(C)N1c2c(-c3ccn[nH]3)cc(C(=O)Nc3ccc(OC(F)(F)Cl)cc3)cc2C2CCC(NC(=O)C3CCOCC3)C21 (stereo not drawn)" recorded_value=15
